test: CellTiter-Glo cytotoxicity assay, Huh7; type: cell-based; conditions: human, Huh7 cells (hepatoblastoma cell line); Huh7, intermediate level of sensitivity
property-label: CC50

Reported CC50 of COc1cccc2c1C(=O)c1c(O)c3c(c(O)c1C2=O)C[C@@](O)(C(=O)CO)C[C@@H]3O[C@H]1C[C@H](N)[C@H](O)[C@H](C)O1 : 70 to 300 nM

* * *

assay: CellTiter-Glo cytotoxicity assay, U937; type: cell-based; settings: human, U937 cells (monocyte cell line); U937, relatively sensitive cell line
property-label: CC50

Reported CC50 of COc1cccc2c1C(=O)c1c(O)c3c(c(O)c1C2=O)C[C@@](O)(C(=O)CO)C[C@@H]3O[C@H]1C[C@H](N)[C@H](O)[C@H](C)O1 : 4 to 10 nM
